# System Under Test: SIRT1 (Homo sapiens, UniProt Q96EB6)
# Test: TAMRA based mass spectrometry assay of SIRT1 activity
# Type: biochemical
# Recorded Conditions: TAMRA assay; concentration giving 150% activation of SIRT1
Property: TAMRA EC1.5 (μM)

# return recorded TAMRA EC1.5 (μM) for entry Cc1ccc(NC(=O)c2c(C)nc3ccc(-c4ccccc4C(F)(F)F)nn23)nn1 [Compound 664] A (EC1.5<1 μM)

# return recorded TAMRA EC1.5 (μM) for entry CC(C)c1nccc(C(=O)Nc2cnn3ccc(-c4ccccc4C(F)(F)F)nc23)n1 [Compound 796] A (EC1.5<1 μM)

# return recorded TAMRA EC1.5 (μM) for entry Cc1ccc(NC(=O)c2c(C)nc3ccc(-c4ccccc4Br)nn23)nn1 [Compound 764] A (EC1.5<1 μM)

# return recorded TAMRA EC1.5 (μM) for entry Cc1ccnc(C(=O)Nc2cnc3ccc(-c4ccccc4C(F)(F)F)nn23)c1 [Compound 233] A (EC1.5<1 μM)

# return recorded TAMRA EC1.5 (μM) for entry Cc1cc(NC(=O)c2cnn3ccc(-c4ccccc4OC(F)(F)F)nc23)ccn1 [Compound 612] A (EC1.5<1 μM)

***
# return recorded TAMRA EC1.5 (μM) for entry Cc1cc(NC(=O)c2c(C)nn3ccc(-c4ccccc4C(F)(F)F)nc23)nc(C)n1 [Compound 787] A (EC1.5<1 μM)

# return recorded TAMRA EC1.5 (μM) for entry O=C(Nc1cnn2ccc(-c3ccccc3C(F)(F)F)nc12)c1ccncn1 [Compound 254] B (EC1.5 1-25 μM)

----------
# System Under Test: SIRT1 (Homo sapiens)
# Sequence (Q96EB6 1-747): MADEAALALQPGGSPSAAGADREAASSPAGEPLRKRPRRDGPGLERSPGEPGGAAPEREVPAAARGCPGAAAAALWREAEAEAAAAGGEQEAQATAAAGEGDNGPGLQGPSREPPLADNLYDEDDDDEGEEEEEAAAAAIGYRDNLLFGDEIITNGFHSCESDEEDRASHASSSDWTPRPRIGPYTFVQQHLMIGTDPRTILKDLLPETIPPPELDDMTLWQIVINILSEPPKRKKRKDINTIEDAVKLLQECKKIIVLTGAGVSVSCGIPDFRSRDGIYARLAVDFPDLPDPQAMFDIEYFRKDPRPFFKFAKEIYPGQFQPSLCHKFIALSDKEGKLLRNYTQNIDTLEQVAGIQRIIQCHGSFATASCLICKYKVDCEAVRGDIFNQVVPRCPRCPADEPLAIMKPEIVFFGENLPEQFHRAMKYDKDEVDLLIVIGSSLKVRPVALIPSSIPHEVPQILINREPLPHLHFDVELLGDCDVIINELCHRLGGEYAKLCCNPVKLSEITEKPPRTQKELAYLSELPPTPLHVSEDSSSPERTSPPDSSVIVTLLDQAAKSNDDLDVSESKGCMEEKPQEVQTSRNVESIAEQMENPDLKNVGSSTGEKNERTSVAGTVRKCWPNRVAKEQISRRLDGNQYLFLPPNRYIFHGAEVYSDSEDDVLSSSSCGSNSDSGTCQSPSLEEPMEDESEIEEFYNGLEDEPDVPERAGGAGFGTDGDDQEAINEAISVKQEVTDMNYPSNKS
# Test: Trp mass spectrometry assay of SIRT1 activity
# Assay type: biochemical
# Recorded Conditions: Trp assay; percent maximum fold activation; read-out: Trp % Fold Act
The entries below come with measured Emax values attached.

Here's what some known entries look like.
# return recorded Emax for entry Cc1nc2ccc(-c3ccccc3Cl)nn2c1NC(=O)c1ccccn1 < 350%

# return recorded Emax for entry Cc1c(-c2ccccc2Cl)nn2c(NC(=O)c3cccc(N4CCCC4)n3)cnc2c1C < 350%

# return recorded Emax for entry CN1CCN(c2ccc3ncc(C(=O)Nc4ccc(F)cn4)n3n2)CC1 < 350%

Proceed to the following item.
# return recorded Emax for entry CC(C)c1nccc(C(=O)Nc2cnn3ccc(-c4ccccc4C(F)(F)F)nc23)n1 < 350%

----------
The entries below come with measured Emax values attached.
# System Under Test: SIRT1 (Homo sapiens)
# Sequence (Q96EB6 1-747): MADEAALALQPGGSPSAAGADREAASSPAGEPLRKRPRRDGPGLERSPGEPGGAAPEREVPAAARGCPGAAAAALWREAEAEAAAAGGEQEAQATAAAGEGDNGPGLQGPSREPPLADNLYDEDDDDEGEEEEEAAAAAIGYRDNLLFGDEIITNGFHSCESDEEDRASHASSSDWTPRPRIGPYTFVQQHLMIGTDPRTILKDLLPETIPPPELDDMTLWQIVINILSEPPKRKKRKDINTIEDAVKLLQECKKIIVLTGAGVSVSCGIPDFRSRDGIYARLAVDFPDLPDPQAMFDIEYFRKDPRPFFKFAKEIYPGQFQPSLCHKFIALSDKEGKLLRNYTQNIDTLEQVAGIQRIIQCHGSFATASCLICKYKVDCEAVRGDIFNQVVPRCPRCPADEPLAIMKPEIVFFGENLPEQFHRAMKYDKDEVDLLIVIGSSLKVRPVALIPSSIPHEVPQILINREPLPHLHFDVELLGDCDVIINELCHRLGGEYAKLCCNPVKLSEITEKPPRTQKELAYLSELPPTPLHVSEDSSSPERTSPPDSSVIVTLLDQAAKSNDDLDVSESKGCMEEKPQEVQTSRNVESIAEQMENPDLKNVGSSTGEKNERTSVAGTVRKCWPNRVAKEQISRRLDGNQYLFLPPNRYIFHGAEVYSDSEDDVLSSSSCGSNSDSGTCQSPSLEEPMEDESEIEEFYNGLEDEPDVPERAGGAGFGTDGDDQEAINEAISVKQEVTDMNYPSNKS
# Test: Trp mass spectrometry assay of SIRT1 activity
# Assay type: biochemical
# Recorded Conditions: Trp assay; percent maximum fold activation; read-out: Trp % Fold Act

Specify the recorded Emax for Cc1nc(NC(=O)c2cnc3ccc(N4CC[C@H](F)C4)nn23)sc1C [Compound 892] , system: SIRT1 (Homo sapiens). < 350%

Specify the recorded Emax for Cc1nc2ccc(-c3ccccc3C(F)(F)F)nn2c1NC(=O)c1cccc(N2CCC2)n1 [Compound 383] , system: SIRT1 (Homo sapiens). ≥ 350%

Specify the recorded Emax for CN1CCN(c2ccc3ncc(C(=O)Nc4ccccn4)n3n2)CC1 [Compound 948] , system: SIRT1 (Homo sapiens). < 350%

Specify the recorded Emax for CC1(C)CCN(c2ccc3ncc(C(=O)Nc4ccncc4F)n3n2)C1 [Compound 960] , system: SIRT1 (Homo sapiens). < 350%

***
Specify the recorded Emax for N#Cc1ccccc1-c1ccc2ncc(NC(=O)c3nccs3)n2n1 [Compound 335] , system: SIRT1 (Homo sapiens). < 350%

----------
# System Under Test: SIRT1 (Homo sapiens, UniProt Q96EB6)
# Test: TAMRA based mass spectrometry assay of SIRT1 activity
# Format: biochemical
# Recorded Conditions: concentration of test compound giving 150% activation of SIRT1; TAMRA peptide substrate
Property: TAMRA EC1.5 (μM)

Specify the recorded TAMRA EC1.5 (μM) for O=C(Nc1ccccn1)c1cnc2ccc(-c3c(F)cccc3Cl)nn12 , system: SIRT1 (Homo sapiens, UniProt Q96EB6). B (EC1.5 1-25 μM)

Specify the recorded TAMRA EC1.5 (μM) for O=C(Nc1ccccn1)c1cnc2ccc(-c3cccc(OC(F)(F)F)c3)nn12 , system: SIRT1 (Homo sapiens, UniProt Q96EB6). B (EC1.5 1-25 μM)

Specify the recorded TAMRA EC1.5 (μM) for Cc1cc(OCC(O)CO)nc(NC(=O)c2cnc3ccc(-c4ccccc4C(F)(F)F)nn23)n1 (centres unmarked) , system: SIRT1 (Homo sapiens, UniProt Q96EB6). B (EC1.5 1-25 μM)

Specify the recorded TAMRA EC1.5 (μM) for O=C(Nc1ncc(CN2CCOCC2)s1)c1cnc2ccc(-c3ccccc3C(F)(F)F)nn12 , system: SIRT1 (Homo sapiens, UniProt Q96EB6). B (EC1.5 1-25 μM)

Specify the recorded TAMRA EC1.5 (μM) for O=C(Nc1ccnc(N2CCC2)c1)c1cnc2ccc(-c3cccc(Cl)c3F)nn12 , system: SIRT1 (Homo sapiens, UniProt Q96EB6). A (EC1.5<1 μM)

Specify the recorded TAMRA EC1.5 (μM) for Cn1ccnc1C(=O)Nc1cnc2ccc(-c3ccccc3C(F)(F)F)nn12 , system: SIRT1 (Homo sapiens, UniProt Q96EB6). B (EC1.5 1-25 μM)

Specify the recorded TAMRA EC1.5 (μM) for O=C(Nc1ccncc1)c1cnc2ccc(-c3cccc(F)c3Cl)nn12 , system: SIRT1 (Homo sapiens, UniProt Q96EB6). B (EC1.5 1-25 μM)

Specify the recorded TAMRA EC1.5 (μM) for CN(C)c1cccc(NC(=O)c2cnc3ccc(-c4ccccc4C(F)(F)F)nn23)n1 , system: SIRT1 (Homo sapiens, UniProt Q96EB6). A (EC1.5<1 μM)

Specify the recorded TAMRA EC1.5 (μM) for O=C(Nc1ncc(N2CCOCC2)s1)c1cnc2ccc(-c3ccccc3C(F)(F)F)nn12 , system: SIRT1 (Homo sapiens, UniProt Q96EB6). A (EC1.5<1 μM)

Specify the recorded TAMRA EC1.5 (μM) for O=C(Nc1cnc2ccc(-c3ccccc3C(F)(F)F)nn12)c1ccccn1 , system: SIRT1 (Homo sapiens, UniProt Q96EB6). A (EC1.5<1 μM)

***
Specify the recorded TAMRA EC1.5 (μM) for O=C(Nc1cccc(CN2CCOCC2)n1)c1cnc2ccc(-c3cc(F)ccc3F)nn12 , system: SIRT1 (Homo sapiens, UniProt Q96EB6). B (EC1.5 1-25 μM)

Specify the recorded TAMRA EC1.5 (μM) for COc1cc(C)nc(NC(=O)c2cnc3ccc(-c4ccccc4C(F)(F)F)nn23)n1 , system: SIRT1 (Homo sapiens, UniProt Q96EB6). A (EC1.5<1 μM)

Specify the recorded TAMRA EC1.5 (μM) for O=C(Nc1cnccn1)c1cnc2ccc(-c3ccccc3F)nn12 , system: SIRT1 (Homo sapiens, UniProt Q96EB6). B (EC1.5 1-25 μM)

Specify the recorded TAMRA EC1.5 (μM) for O=C(Nc1cnc2ccc(-c3ccccc3C(F)(F)F)nn12)c1cnccn1 , system: SIRT1 (Homo sapiens, UniProt Q96EB6). A (EC1.5<1 μM)

Specify the recorded TAMRA EC1.5 (μM) for Cc1nc(C)c(-c2ccc3ncc(C(=O)Nc4cccc(N5CCOCC5)n4)n3n2)s1 , system: SIRT1 (Homo sapiens, UniProt Q96EB6). A (EC1.5<1 μM)

Specify the recorded TAMRA EC1.5 (μM) for O=C(Nc1cnc2ccc(-c3ccccc3C(F)(F)F)nn12)c1ccncn1 , system: SIRT1 (Homo sapiens, UniProt Q96EB6). A (EC1.5<1 μM)
